- procedure-text: in vivo
- Design: species or system Crab-eating macaques (Macaca fascicularis)
- applied-conditions: male, cynomolgus monkey, po, 100 mg/kg
assay-readout: half-life (h)
Supply the numeric figure in h, leaving out any unit text.

The reported value for "C[C@H]1N2C(=O)c3c(O)c(=O)c(C(=O)NCc4ccc(F)cc4F)cn3C[C@@H]2OCC12CC2" in terms of half-life is 19.8

---

- procedure-text: in vivo
- Set-up: species or system Crab-eating macaques (Macaca fascicularis)
- applied-conditions: male, cynomolgus monkey, po, 100 mg/kg
assay-readout: AUC(0-t)

Record summary for "C[C@H]1N2C(=O)c3c(O)c(=O)c(C(=O)NCc4ccc(F)cc4F)cn3C[C@@H]2OCC12CC2" : reported AUC(0-t) = 140 µg·h/mL
